- Test system: CAKI-1 renal
- Experimental Details: NCI tumour cell line growth inhibition, 48 h
Endpoint Label: TGI

# Compound, TGI
data = [
    ("C[n+]1c2cc(N)ccc2cc2ccc(N)cc21 (tested in a mixture with another compound)", "3.54 µM"),
    ("CN(C)c1ccc(/C=C/c2ccnc3ccc4ccccc4c23)cc1", "> 100 µM"),
    ("C/C=C/C(=O)[C@@H](O)C(C)C", "> 100 µM"),
]

Data request, read-out TGI, for `CCN(CC)CCSc1n[nH]c(-c2c[nH]c3nc(C)ccc3c2=O)n1`
> 100 µM

Data request, read-out TGI, for `Cc1cc(S(=O)(=O)Nc2nc3ccccc3[nH]2)c(S)cc1Cl`
> 100 µM

Data request, read-out TGI, for `COc1ccc2c(O)c(/C=C3\N=Nc4ncccc43)oc2c1C[C@H]1CCNC[C@H]1F`
11.3 µM

###

- Test system: SK-OV-3 ovarian
- Experimental Details: NCI tumour cell line growth inhibition, 48 h
Endpoint Label: TGI

Known results for compounds:
# Compound, TGI
data = [
    ("COc1ccc(C(=O)Nc2ccc(S(=O)(=O)NCC(=O)O)cc2)cc1", "> 100 µM"),
    ("c1ccc(CN2CCCN3CCN(CCCN(Cc4ccccc4)CC3)CC2)cc1", "> 100 µM"),
]

Data request, read-out TGI, for CC(=O)OCC1OC(O[C@@H]2C[C@H]3C(C)(C)[C@H](OC(C)=O)CC[C@]3(C)[C@H]3CC[C@]4(C)C(=CC[C@H]4[C@@H](C)C[C@@H](O)[C@H](O)C(C)(C)O)[C@@]32C)C(O)C(O)C1O (stereo partly drawn)
32.5 µM

###

- Test system: SK-MEL-5 melanoma
- Experimental Details: NCI tumour cell line growth inhibition, 48 h; in the data active means GI50 below about 0.43 µM; inactive means the rest
Entry note: the call must match one of active, inactive

# Compound, Subject Of Test, Class Label
records = [
    ("C=CC[N+]1(CCO)CCN=C1CCCCCCCCCCCCC (stereo not given)", "SK-MEL-5 melanoma", "inactive"),
    ("Cc1c2cnccc2c(C)c2c1c1cc(C(=O)O)ccc1n2C", "SK-MEL-5 melanoma", "inactive"),
    ("COc1ccccc1-c1ccc2nc(NC(=O)Nc3cc(C(F)(F)F)cc(C(F)(F)F)c3)sc2c1", "SK-MEL-5 melanoma", "inactive"),
]

Would you mind telling me which call this test gave `O=c1c2[nH]c3ccccc3c2nc2n1CCS2` ?
inactive

Would you mind telling me which call this test gave CC(N)(Cc1c[nH]c2ccccc12)C(=O)O (stereo not given) ?
inactive

Would you mind telling me which call this test gave `O=C1c2ccc3c4c(ccc(c24)C(=O)N1CCCNCc1ccccc1)C(=O)N(CCCNCc1ccccc1)C3=O` ?
active

Would you mind telling me which call this test gave OC(COc1cccc2ccccc12)CN1CCN(c2ccc(Cl)cc2)CC1 (stereo not given) ?
inactive

Would you mind telling me which call this test gave `COc1cc(-c2nc3ccccc3[nH]2)ccc1OCC(=O)N=Nc1c(O)[nH]c2ccc(Cl)cc12` ?
inactive

Would you mind telling me which call this test gave `COc1cc(-c2cc(-c3nc4cc(Cl)c(Cl)cc4[nH]3)[nH]n2)cc(OC)c1OC` ?
inactive

Would you mind telling me which call this test gave CN1C(=O)N(C)C2C1NN=c1s/c(=C\c3c[nH]c4ccccc34)c(=O)n12 (stereo not given) ?
active
